Data origin: paper PMC3608651

target_or_test_system: HLA-A*30:02 (Homo sapiens, UniProt P04439, D101N/D140H/D185E/E176R/F33S/G80R/H175R/K168Q/Q94H/R138E/R41S/V100E)
Format: binding
run_conditions: percent relative the binding of positive control peptide […]; duplicated experiments; positive binder >40%
Note to self: values exactly at 60% are Met. So Bind A*30:02 at or above 60% is Met, below is Not met.

Sample answers from the record:
- substance: "NFVRSSNLK"
  category: "Not met"
- substance: "VFNFPPNGT"
  category: "Met"
- substance: "VMPVGGQSS"
  category: "Not met"
- substance: "SSNLKFQDA"
  category: "Met"
- substance: "GWDINTPAF"
  category: "Not met"

Here is another substance to look at.
API: above_or_equal(metric=Bind A*30:02, cutoff=60%) for item SPAVYLLDG Not met
